molecular target: human DGKζ (Homo sapiens, UniProt Q13574); construct: TVMV protease cleavage site (C); Hexa-His (C); made in house; host or cells: Sf9 insect cells (baculovirus, Bac-to-Bac); assay: DGKζ LIPGLO assay (extruded liposome substrate), in vitro DGK inhibition; assay type: biochemical; settings: liposome (LIPGLO) assay; read-out: DGKz LIPGLO IC50
Sequence (Q13574 with tags, fused parts or gaps isoform Q13574-4): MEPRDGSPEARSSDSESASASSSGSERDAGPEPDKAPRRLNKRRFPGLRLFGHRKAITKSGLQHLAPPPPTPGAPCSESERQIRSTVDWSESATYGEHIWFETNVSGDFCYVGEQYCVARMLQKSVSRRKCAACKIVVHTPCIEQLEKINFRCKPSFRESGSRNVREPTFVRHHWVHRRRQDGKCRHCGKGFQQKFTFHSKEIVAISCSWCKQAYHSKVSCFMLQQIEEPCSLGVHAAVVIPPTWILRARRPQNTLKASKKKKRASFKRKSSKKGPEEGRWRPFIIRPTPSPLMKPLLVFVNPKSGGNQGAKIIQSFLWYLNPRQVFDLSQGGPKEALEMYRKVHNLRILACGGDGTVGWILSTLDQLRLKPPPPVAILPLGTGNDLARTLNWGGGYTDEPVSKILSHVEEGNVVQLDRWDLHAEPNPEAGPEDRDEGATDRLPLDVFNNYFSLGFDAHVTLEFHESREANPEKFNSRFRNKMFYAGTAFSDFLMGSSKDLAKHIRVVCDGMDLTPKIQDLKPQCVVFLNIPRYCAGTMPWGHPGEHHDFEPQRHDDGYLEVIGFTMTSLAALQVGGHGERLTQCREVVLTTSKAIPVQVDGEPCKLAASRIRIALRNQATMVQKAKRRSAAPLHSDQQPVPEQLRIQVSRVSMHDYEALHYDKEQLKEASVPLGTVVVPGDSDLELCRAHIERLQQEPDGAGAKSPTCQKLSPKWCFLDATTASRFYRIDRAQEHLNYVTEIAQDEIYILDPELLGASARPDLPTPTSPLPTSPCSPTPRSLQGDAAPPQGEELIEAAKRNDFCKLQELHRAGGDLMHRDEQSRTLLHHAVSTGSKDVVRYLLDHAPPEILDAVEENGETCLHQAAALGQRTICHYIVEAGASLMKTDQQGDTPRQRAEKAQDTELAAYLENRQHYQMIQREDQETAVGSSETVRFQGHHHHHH
Can you tell me pIC50 for the items I'm about to list?
Schema: pIC50 number; meaning minus log10 of the concentration expressed in molar units.

Prompt: Look up pIC50: CC(c1ccc(C2(C#N)CC2)cc1)N1C[C@H](C)N(c2cc(=O)n(C)c3ccc(C#N)nc23)C[C@H]1C (stereo partly drawn) [Example 1253]
Response: 6.47

Prompt: Look up pIC50: Cc1ccc(C(c2cccc(Cl)c2)N2C[C@H](C)N(c3cc(=O)n(C)c4ccc(C#N)nc34)C[C@H]2C)nc1 (single isomer, unassigned) [Example 372]
Response: 6.57

Prompt: Look up pIC50: C[C@@H]1CN(c2cc(=O)n(C)c3ccc(C#N)nc23)[C@@H](C)CN1C(c1ccc(F)cc1)c1cccc(C(F)F)n1 (single isomer, unassigned) [Example 697]
Response: 7.23

Prompt: Look up pIC50: CCOc1cccc(CN2C[C@H](C)N(c3cc(=O)n(C)c4ccc(C#N)nc34)C[C@H]2C)c1 [Example 599]
Response: 5.72

Prompt: Look up pIC50: CCC(c1ccc(OC(C)(C)C)cc1)N1C[C@H](C)N(c2cc(=O)n(C)c3ccc(C#N)nc23)C[C@H]1C (single isomer, unassigned) [Example 1444]
Response: 6.32

Prompt: Look up pIC50: C[C@@H]1CN(c2cc(=O)n(C)c3ccc(C#N)nc23)[C@@H](C)CN1C(CO)c1ccc(F)cc1 (single isomer, unassigned) [Example 557]
Response: 5.28

Data provenance is patent US10669272B2.
